system: compound-only thermal shift, SYPRO orange fluorescence, no protein; test: compound-only thermal shift interference, dose response, artefact control for FGF22 binder project, biophysical, SYPRO orange, qPCR instrument, dry powder samples (AID 743039); conditions: at 0.16 µM
Here, each record is paired with measured thermal shift signal, higher = interference data.
Measurement label: thermal shift signal, higher = interference (%)

{"columns": ["Structure string", "Assay target", "Unit abbreviation", "Experimental value"],
 "data": [
  ["O=C(N/N=C/c1c[nH]c2ccccc12)c1ccc(O)c(O)c1", "compound-only thermal shift, SYPRO orange fluorescence, no protein", "%", 0.065],
  ["O=C(Nc1cc(Cl)cc(Cl)c1)N[C@@H]1CC[C@@H](CCNS(=O)(=O)c2cccc(F)c2)O[C@@H]1CO", "compound-only thermal shift, SYPRO orange fluorescence, no protein", "%", 0.004],
  ["CCCNC(=O)COC(=O)c1ccccc1C(=O)N(C)C1CCCCC1", "compound-only thermal shift, SYPRO orange fluorescence, no protein", "%", -0.157],
  ["O=C(N/N=C/c1ccc(C(F)(F)F)cc1)c1ccc(O)cc1", "compound-only thermal shift, SYPRO orange fluorescence, no protein", "%", -0.028],
  ["CC(=O)Nc1cccc(C(=O)N/N=C/c2c[nH]c3ccccc23)c1", "compound-only thermal shift, SYPRO orange fluorescence, no protein", "%", 0.019]
]}

----------
tested on: compound-only thermal shift, SYPRO orange fluorescence, no protein; test: compound-only thermal shift interference, dose response, artefact control for FGF22 binder project, biophysical, SYPRO orange, qPCR instrument, dry powder samples (AID 743039); details: at 0.16 µM
Items are presented alongside their recorded thermal shift signal, higher = interference.
Measurement label: thermal shift signal, higher = interference (%)

{"columns": ["Structure string", "Unit abbreviation", "Experimental value"],
 "data": [
  ["O=C(Nc1ccc(S(=O)(=O)N2CCOCC2)cc1)c1ccc(F)cc1", "%", -0.05],
  ["CCc1cc(-c2[nH]ncc2-c2ccc3c(c2)OCCO3)c(O)cc1O", "%", -0.049],
  ["CC(=O)Nc1ccc(NC(=O)Nc2ccccc2)cc1", "%", 0.246]
]}

----------
The entries below are paired with their reported thermal shift signal, higher = interference.
system: compound-only thermal shift, SYPRO orange fluorescence, no protein; experiment: compound-only thermal shift interference, dose response, artefact control for FGF22 binder project, biophysical, SYPRO orange, qPCR instrument, dry powder samples (AID 743039); details: at 0.16 µM
Measurement label: thermal shift signal, higher = interference (%)

{"columns": ["Compound", "Unit abbreviation", "Experimental value"],
 "data": [
  ["Nc1ccc(C(=O)N/N=C/c2c[nH]c3ccccc23)cc1", "%", 0.042],
  ["CN(Cc1c(C(=O)N/N=C/c2ccc(O)cc2)nnn1-c1nonc1N)c1ccccc1", "%", -0.045],
  ["CC(=O)c1ccc(NC(=O)Nc2cccnc2)cc1", "%", 0.235],
  ["CCOc1cccc(C(=O)Nc2ccc3[nH]ncc3c2)c1", "%", -0.066],
  ["Cc1[nH]c2ccc(C(=O)OCC(=O)Nc3cccc(S(N)(=O)=O)c3)cc2c1C", "%", -0.322],
  ["O=C(NCCc1c[nH]c2ccccc12)c1ccc(Cl)cc1", "%", 0.048],
  ["Cc1cc(NC(=O)Nc2ccc3c(ccn3C)c2)sn1", "%", 0.052],
  ["O=C(N/N=C/c1c[nH]c2ccccc12)c1cccs1", "%", -0.182],
  ["Nc1cccc(-c2nc3ccc(C(=O)c4ccccc4)cc3[nH]2)c1", "%", 0.145],
  ["Cc1ccc(OCCCC(=O)Nc2ccc(S(=O)(=O)N3CCOCC3)cc2)cc1", "%", -0.12],
  ["COc1ccc(C)cc1NS(=O)(=O)c1ccc(NS(=O)(=O)c2ccc(NC(C)=O)cc2)cc1", "%", -0.005],
  ["CC(C)c1c(C(=O)N/N=C/c2c[nH]c3ccccc23)nnn1-c1nonc1N", "%", -0.009],
  ["O=C(Nc1ccc(S(=O)(=O)N2CCCC2)cc1)c1ccccc1", "%", -0.209],
  ["O=C(N/N=C/c1c[nH]c2ccccc12)c1cccc(Cl)c1", "%", 0.069],
  ["COc1ccc(Nc2nc3ccc(OC)cc3s2)cc1", "%", 0.188],
  ["CC(=O)Nc1cccc(NC(=O)c2ccc3[nH]c(C)c(C)c3c2)c1", "%", -0.227],
  ["Cc1ccc(S(=O)(=O)N2C[C@H](O)COC[C@H]3O[C@H](CC(=O)NCc4ccc(Cl)c(Cl)c4)CC[C@@H]32)cc1", "%", 0.168],
  ["Cc1ccn(-c2ccc(NC(=O)c3cccs3)cc2)n1", "%", -0.057],
  ["O=S(=O)(Nc1nnc(C(F)(F)F)s1)c1ccc(Cl)cc1", "%", -0.081],
  ["Cc1ccc(S(=O)(=O)N2C[C@@H](O)COC[C@@H]3O[C@@H](CC(=O)NCc4ccc(Cl)c(Cl)c4)CC[C@H]32)cc1", "%", 0.045],
  ["CSc1ccc(/C=N/NC(=O)c2ccc3nc[nH]c3c2)cc1", "%", 0.305],
  ["O=C(N/N=C/c1cccc(Oc2ccccc2)c1)c1cccc(O)c1", "%", -0.026],
  ["O=C(Nc1ccc(Cl)cc1)N[C@@H]1CC[C@@H](CCNS(=O)(=O)c2ccccc2F)O[C@H]1CO", "%", -0.043],
  ["Cc1cc(C(=O)N/N=C/c2c[nH]c3ccccc23)cs1", "%", 0.145],
  ["O=C(Nc1cc(Cl)cc(Cl)c1)N[C@@H]1CC[C@@H](CCNS(=O)(=O)c2cccc(F)c2)O[C@H]1CO", "%", 0.061],
  ["O=C(C[C@H]1CC[C@@H]2[C@H](COC[C@H](O)CN2S(=O)(=O)c2cccc(Cl)c2)O1)Nc1ccccc1", "%", -0.063],
  ["O=C(O)Cc1ccc(NC(=O)c2ccc(Cl)c(Cl)c2)cc1", "%", 0.188],
  ["CCN1C/C(=C/c2cccs2)c2nc3ccccc3c(C(=O)O)c2C1", "%", 0.048],
  ["Clc1ccc(Nc2ccc(NCc3ccccc3)nn2)cc1", "%", -0.178],
  ["O=S1(=O)N=C(N(Cc2cccs2)c2ccc(O)cc2)c2ccccc21", "%", 0.057],
  ["CCc1cc(-c2n[nH]c(C)c2-c2ccc3c(c2)OCCO3)c(O)cc1O", "%", -0.093],
  ["COc1cc(/C=N/NC(=O)c2cc3ccccc3[nH]2)ccc1O", "%", -0.114],
  ["COC(=O)C[C@H]1CC[C@@H]2[C@@H](COc3ccc(NC(=O)Nc4ccc(C#N)cc4)cc3C(=O)N2C)O1", "%", 0.237],
  ["CCN1C(=O)C(CC(=O)Nc2ccc(F)cc2)N(Cc2ccc3c(c2)OCO3)C1=S (configuration not stated)", "%", -0.165],
  ["CCNC(=O)C[C@@H]1CC[C@H]2[C@H](COc3ccc(NC(=O)Nc4ccc(Cl)cc4)cc3C(=O)N2C)O1", "%", 0.052],
  ["O=C(Nc1nccs1)C1CC(=O)N(c2ccc(F)cc2)C1 (configuration not stated)", "%", -0.148],
  ["COc1ccc(-c2nc(-c3ccc(O)cc3O)cs2)cc1OC", "%", 0.011],
  ["Cc1[nH]c2ccccc2c1C(=O)NS(=O)(=O)Nc1ccc(Cl)cc1", "%", -0.148],
  ["O=C(Nc1ccc(S(=O)(=O)N2CCCC2)cc1)c1cccs1", "%", -0.157],
  ["O=C(N/N=C/c1c[nH]c2ccccc12)c1cccc(O)c1", "%", 0.355],
  ["COC(=O)C1=C(CS(=O)(=O)c2cc(OC)ccc2OC)NC(=O)NC1c1ccc(O)c(OC)c1 (configuration not stated)", "%", -0.182],
  ["COC(=O)C[C@H]1CC[C@@H]2[C@@H](COc3ccc(NC(=O)Nc4cccc(C#N)c4)cc3C(=O)N2C)O1", "%", 0.097]
]}
